The values you see were collected from patent EP0555537B1.

Molecular target: ETB receptor (Sus scrofa, UniProt P35463)
Construct: ETB receptors of porcine cerebellum membrane suspension used in the present experiments; from tissue; host or cells: porcine cerebellum membrane fraction
Sequence (P35463 27-443): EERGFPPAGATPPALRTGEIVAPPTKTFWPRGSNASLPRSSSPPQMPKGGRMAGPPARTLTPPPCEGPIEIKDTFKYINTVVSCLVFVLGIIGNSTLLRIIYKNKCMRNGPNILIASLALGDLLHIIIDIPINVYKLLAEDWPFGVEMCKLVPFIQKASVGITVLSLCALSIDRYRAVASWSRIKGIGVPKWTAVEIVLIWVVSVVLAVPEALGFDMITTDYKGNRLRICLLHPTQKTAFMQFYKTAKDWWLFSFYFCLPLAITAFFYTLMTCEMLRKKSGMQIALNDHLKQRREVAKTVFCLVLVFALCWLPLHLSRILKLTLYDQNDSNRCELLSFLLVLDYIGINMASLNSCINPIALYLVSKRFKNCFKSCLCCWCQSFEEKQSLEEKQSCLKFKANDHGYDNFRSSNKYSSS
Experiment: Endothelin binding inhibition test (^125I-endothelin-1, porcine cerebellum membrane suspension)
Settings: 1.1 µM of the test compound, triplicate
Numbered stars: 1 amine (or outer) side, 2 acyl side, 3 side chain; on linkers, the order of the positions; unused ones are H or OH. Square brackets hold non-standard residues; d marks the D form. Peptide text beside a SMILES is read from it. * marks the point of attachment. dNle = CCCC[C@@H](N)C(=O)O; Piperidide = C1CCN(*)CC1; CO = O=C([*:1])[*:2]; Moc = COC(=O)*
Observable: inhibition at 1.1 µM (%)

- CCCC[C@@H](NC(=O)[C@@H](Cc1cn(C(=O)OC)c2ccccc12)NC(=O)[C@H](CC(C)C)NC(=O)N1CCSCC1)C(=O)O: 89
- CCCC[C@@H](NC(=O)[C@@H](Cc1cn(C(=O)OC)c2ccccc12)NC(=O)[C@H](CC(C)C)NC(=O)N1CCCCC1)C(=O)O [Compound 12] ({Piperidide-CO}-Leu-[dW](Moc)-[dNle]-OH): 96
- CCCC[C@@H](NC(=O)[C@@H](Cc1cn(C(=O)OC)c2ccccc12)NC(=O)[C@H](CC(C)C)NC(=O)N1CCSC1)C(=O)O: 72
- CCCC[C@@H](NC(=O)[C@@H](Cc1cn(C(=O)OC)c2ccccc12)NC(=O)[C@H](CC(C)C)NC(=O)N1CCCCCCC1)C(=O)OC(C)(C)C: 92
- CCCC[C@@H](NC(=O)[C@@H](Cc1cn(C(=O)OC)c2ccccc12)NC(=O)[C@H](CC(C)C)NC(=O)N(C(C)C)C(C)C)C(=O)O: 99
- CCCC[C@@H](NC(=O)[C@@H](Cc1cn(C(=O)OC)c2ccccc12)NC(=O)[C@H](CC(C)C)NC(=O)N1CCCCCCC1)C(=O)O: 99
